# Procedure Summary: in vivo
# Condition Summary: female, BALB/c, mouse, po, 63 mg/kg
Observed Property: AUC(0-inf) (ng·h/mL)
One number for each entry, in ng·h/mL.

Give reported AUC(0-inf) value for Nc1nc2c(ncn2CCC(CO)CO)c(=O)[nH]1 [PCV, penciclovir] 11300

---

# Procedure Summary: in vivo
# Condition Summary: female, BALB/c, mouse, po, 32 mg/kg, Cmax Mean
Observed Property: Cmax (ng/mL)
Give bare numbers, in ng/mL.

Annotate the compound Nc1nc2c(ncn2CCC(CO)CO)c(=O)[nH]1 with its measured Cmax. 3150

---

# Procedure Summary: in vivo
# Condition Summary: female, BALB/c, mouse, po, 63 mg/kg, Cmax Mean
Observed Property: Cmax
Respond with a number, then the unit of measure.

Return reported Cmax. Input compound: Nc1nc2c(ncn2CCC(CO)CO)c(=O)[nH]1 7100 ng/mL

---

# Procedure Summary: in vivo
# Condition Summary: female, BALB/c, mouse, po, 32 mg/kg, AUClast Mean
Observed Property: AUC(0-t) (ng·h/mL)
Numbers only, in ng·h/mL.

Item Nc1nc2c(ncn2CCC(CO)CO)c(=O)[nH]1 [PCV, penciclovir] : provide AUC(0-t) 5010

---

# Procedure Summary: in vivo
# Condition Summary: female, BALB/c, mouse, po, 63 mg/kg
Observed Property: half-life (min)
Give bare numbers, in min.

Input Nc1nc2c(ncn2CCC(CO)CO)c(=O)[nH]1 , output reported half-life. 58.2

---

# Procedure Summary: in vivo
# Condition Summary: female, BALB/c, mouse, po, AUCinf
Observed Property: AUC(0-inf) (ng·h/mL)
Numbers only, in ng·h/mL.

Give me measured AUC(0-inf), please, for this molecule: Nc1nc2c(ncn2CCC(CO)CO)c(=O)[nH]1 [PCV, penciclovir] 85500

---

# Procedure Summary: in vivo
# Condition Summary: female, BALB/c, mouse, po, t1/2, plasma PCV, Group 8: 500 mg/kg VACV + 250 mg/kg FCV po
Observed Property: half-life (h)
Answers are plain numbers, in h.

Supply measured half-life of Nc1nc2c(ncn2CCC(CO)CO)c(=O)[nH]1 [PCV, penciclovir] in your reply. 4.3

---

# Procedure Summary: in vivo
# Condition Summary: female, BALB/c, mouse, po, 32 mg/kg, t1/2
Observed Property: half-life (h)
Answers are plain numbers, in h.

Find the measured half-life of Nc1nc2c(ncn2CCC(CO)CO)c(=O)[nH]1 and report it. 2.34

---

# Procedure Summary: in vivo
# Condition Summary: female, BALB/c, mouse, iv, 63 mg/kg, AUCinf
Observed Property: AUC(0-inf) (ng·h/mL)
Give bare numbers, in ng·h/mL.

Return AUC(0-inf) (reported value) for this compound: Nc1nc2c(ncn2CCC(CO)CO)c(=O)[nH]1 15200

---

# Procedure Summary: in vivo
# Condition Summary: female, BALB/c, mouse, po, 63 mg/kg, AUClast Mean
Observed Property: AUC(0-t) (ng·h/mL)
Answers are plain numbers, in ng·h/mL.

Assign AUC(0-t) to the following record: Nc1nc2c(ncn2CCC(CO)CO)c(=O)[nH]1 18400

---

# Procedure Summary: in vivo
# Condition Summary: female, BALB/c, mouse, po, 16 mg/kg, AUCinf
Observed Property: AUC(0-inf) (ng·h/mL)
Give bare numbers, in ng·h/mL.

Using the record for Nc1nc2c(ncn2CCC(CO)CO)c(=O)[nH]1 , state its measured AUC(0-inf). 6200

---

# Procedure Summary: in vivo
# Condition Summary: female, BALB/c, mouse, po, Cmax Mean
Observed Property: Cmax (ng/mL)
One number for each entry, in ng/mL.

Give the reported Cmax for this molecule. Nc1nc2c(ncn2CCC(CO)CO)c(=O)[nH]1 31200

---

# Procedure Summary: in vivo
# Condition Summary: female, BALB/c, mouse, po, 63 mg/kg
Observed Property: AUC(0-t) (ng·h/mL)
One number for each entry, in ng·h/mL.

Determine from records and report AUC(0-t) for Nc1nc2c(ncn2CCC(CO)CO)c(=O)[nH]1 10600

---

# Procedure Summary: in vivo
# Condition Summary: female, BALB/c, mouse, po, AUClast Mean
Observed Property: AUC(0-t) (ng·h/mL)
Numbers only, in ng·h/mL.

Find the measured AUC(0-t) of Nc1nc2c(ncn2CCC(CO)CO)c(=O)[nH]1 and report it. 84500

---

# Procedure Summary: in vivo
# Condition Summary: female, BALB/c, mouse, iv, 63 mg/kg, Cmax Mean
Observed Property: Cmax (ng/mL)
Give bare numbers, in ng/mL.

Give me measured Cmax, please, for this compound: Nc1nc2c(ncn2CCC(CO)CO)c(=O)[nH]1 [PCV, penciclovir] 8800

---

# Procedure Summary: in vivo
# Condition Summary: female, BALB/c, mouse, po, t1/2, Group 8: VACV 500 mg/kg and FCV 250 mg/kg in combination, po, plasma
Observed Property: half-life (h)
Numbers only, in h.

Hello, please tell me recorded half-life for this one: Nc1nc2c(ncn2CCC(CO)CO)c(=O)[nH]1 4.3

---

# Procedure Summary: in vivo
# Condition Summary: female, BALB/c, mouse, iv, 63 mg/kg, t1/2, Group 1: 125 mg/kg VACV and 63 mg/kg FCV, iv, single dose, plasma
Observed Property: half-life (h)
Answers are plain numbers, in h.

Answer with reported half-life of Nc1nc2c(ncn2CCC(CO)CO)c(=O)[nH]1 1.29

---

# Procedure Summary: in vivo
# Condition Summary: female, BALB/c, mouse, po, 63 mg/kg, AUCinf
Observed Property: AUC(0-inf) (ng·h/mL)
Give bare numbers, in ng·h/mL.

Specify reported AUC(0-inf) for the compound shown: Nc1nc2c(ncn2CCC(CO)CO)c(=O)[nH]1 19200

---

# Procedure Summary: in vivo
# Condition Summary: female, BALB/c, mouse, po, 16 mg/kg, Cmax Mean
Observed Property: Cmax (ng/mL)
Give bare numbers, in ng/mL.

Provide measured Cmax value, entry: Nc1nc2c(ncn2CCC(CO)CO)c(=O)[nH]1 4590

---

# Procedure Summary: in vivo
# Condition Summary: female, BALB/c, mouse, po, 63 mg/kg, t1/2
Observed Property: half-life (h)
Give bare numbers, in h.

Item Nc1nc2c(ncn2CCC(CO)CO)c(=O)[nH]1 [PCV, penciclovir] : provide half-life 2.34

---

# Procedure Summary: in vivo
# Condition Summary: female, BALB/c, mouse, po, 16 mg/kg, AUClast Mean
Observed Property: AUC(0-t) (ng·h/mL)
Numbers only, in ng·h/mL.

Given Nc1nc2c(ncn2CCC(CO)CO)c(=O)[nH]1 [PCV, penciclovir] , respond with its AUC(0-t). 6100

---

# Procedure Summary: in vivo
# Condition Summary: female, BALB/c, mouse, po, 16 mg/kg, t1/2
Observed Property: half-life (h)
Give bare numbers, in h.

# return recorded half-life for entry Nc1nc2c(ncn2CCC(CO)CO)c(=O)[nH]1 1.89

---

# Procedure Summary: in vivo
# Condition Summary: female, BALB/c, mouse, iv, 63 mg/kg, t1/2, plasma PCV, Group 1: 125 mg/kg VACV and 63 mg/kg FCV iv
Observed Property: half-life (h)
Numbers only, in h.

Please look at this compound and report its half-life: Nc1nc2c(ncn2CCC(CO)CO)c(=O)[nH]1 1.29
